Source listed as ChEMBL document CHEMBL1201862.

Tested on: Hs-578T
Test: NCI tumour cell line growth inhibition, 48 h
Active and inactive are the calls of the source. Cut-off read from the data, not from the text of the source: active = GI50 up to about 1.1 µM and inactive = higher.
Exercise: state measured GI50 for each of the compounds provided.

These solved cases illustrate the format of a correct answer.
[[record]]
compound = "O=c1cc(N2CCCC2)[nH]c(=O)n1-c1cccc(C(F)(F)F)c1"
measurement_type = "GI50"
value = "> 100 µM (inactive)"

[[record]]
compound = "O=c1c(Cc2ccc(Cl)cc2)nnc2sc(-c3ccc([N+](=O)[O-])cc3)nn12"
measurement_type = "GI50"
value = "42 µM (inactive)"

[[record]]
compound = "COc1cc(/C=C2\\CCC(C)c3c2nc(N)c(C#N)c3-c2cc(OC)c(OC)c(OC)c2)cc(OC)c1OC (stereo unspecified)"
measurement_type = "GI50"
value = "18.7 µM (inactive)"

[[record]]
compound = "C=C=C(CC1CCCCC1=O)S(=O)(=O)c1ccccc1 (stereo unspecified)"
measurement_type = "GI50"
value = "> 10 µM (inactive)"

[[record]]
compound = "COc1ccc(-n2cnn3c(=O)c4cn[nH]c4nc23)cc1"
measurement_type = "GI50"
value = "> 10 µM (inactive)"

[[record]]
compound = "Cc1cc(C)nc(SCCc2cccc[n+]2C)n1"
measurement_type = "GI50"
value = "> 100 µM (inactive)"

[[record]]
compound = "CCCCCCCCCCCCCC[S+](C)C"
measurement_type = "GI50"
value = "1.65 µM (inactive)"

[[record]]
compound = "C=CCC1(O)c2ccccc2C(=O)c2c(O)ccc(O)c21 (stereo unspecified)"
measurement_type = "GI50"
value = "4.24 µM (inactive)"

[[record]]
compound = "CSc1ccc(/C=C2\\N=C(c3ccccc3)N(/N=C/c3cc4cc(C)ccc4nc3Cl)C2=O)cc1"
measurement_type = "GI50"
value = "23.1 µM (inactive)"

[[record]]
compound = "O=C(O)c1nc2ccc(C(F)(F)F)cc2[nH]c1=O"
measurement_type = "GI50"
value = "> 100 µM (inactive)"


Let us move to another entry and its GI50.
In: If you can, please state the reported GI50 value of ClCCN(CCCl)c1ccc(/C=N/Nc2ccnc3ccccc23)cc1 .
Out: 2.23 µM (inactive)

----------
Tested on: SK-MEL-5
Test: NCI tumour cell line growth inhibition, 48 h
Calls of active or inactive are those of the source. Rule as the data show it: active = GI50 up to about 1.1 µM and inactive = higher.
Exercise: state measured GI50 for each of the compounds provided.

[[record]]
compound = "Oc1ccc(Cn2c(-c3ccc(O)c(O)c3)nc3ccccc32)cc1O"
value = "14.7 µM (inactive)"


Dear colleague, could you send me GI50 for each of the items below? Thanks.
1. O=c1c2ccccc2n2c(-c3ccc(O)cc3)nnc2n1-c1ccccc1
2. Cc1ccc(-c2n[nH]c(CC#N)n2)cc1
3. COc1ccc(-n2cnn3c(=O)c4cn[nH]c4nc23)cc1
4. CC(C)=Cc1cc(CCC/C(C)=C/Cc2c(O)cc(C)c(C(=O)O)c2O)co1

Out:
["18.5 µM (inactive)", "> 100 µM (inactive)", "> 10 µM (inactive)", "> 100 µM (inactive)"]

Dear colleague, could you send me GI50 for each of the items below? Thanks.
1. CC(O)CNC1=CC(=O)C(=O)c2ccccc21 (centres undefined)
2. Cc1cc(C)nc(SCCc2cccc[n+]2C)n1
3. c1ccc(C[n+]2ccc3c(c2)CCCC3)cc1
4. C/C(=N\NC(=S)N1CCN(c2ccccn2)CC1)c1cccc(C)n1

Out:
["2.82 µM (inactive)", "> 100 µM (inactive)", "19.6 µM (inactive)", "1.53 µM (inactive)"]
